Target: Human IP6K1 (Homo sapiens)
Construct: GST (N, cleaved yes); made in house; host or cells: C43 E. coli, pGEX-6P-2
Assay: IP6K1 high-throughput screen of the Sigma LOPAC (ADP-Glo Max, single point);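 note: final compound concentration 10µM in 5% DMSO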
Format: biochemical
Conditions: LOPAC single-point screen; Z-score from raw signal with plate average and StDev
Structures can show the parent of a compound that is named as a salt.
endpointLabel: Z-score
Output spec: single numeric token, no unit.

stdin: What is its Z-score for Human IP6K1 (Homo sapiens)? Entry: COc1ccc2c(c1OC)C(=O)O[C@@H]2[C@H]1c2c(cc3c(c2OC)OCO3)CCN1C.Cl [Noscapine hydrchloride]
stdout: -0.1485

stdin: Now the same for C[N+](C)(C)CC#CCOC(=O)Nc1cccc(Cl)c1.[Cl-]
stdout: -0.3445

stdin: Then this compound: O=C(CCNNC(=O)c1ccncc1)NCc1ccccc1 [Nialamide]
stdout: -0.2689

stdin: Next compound: CN(C(=O)Cc1ccc(Cl)c(Cl)c1)C(CN1CCCC1)c1cccc(OCC(=O)O)c1.Cl (centres unmarked) [ICI 204,448 hydrochloride]
stdout: -0.1333

stdin: Same question for CC(C)[C@H]1CN[C@H](C(=O)O)[C@H]1CC(=O)O [Dihydrokainic acid] please.
stdout: -0.3936

stdin: Next entry: COc1cccc(C(=O)NCCN2CCN(c3ccc(Cl)cc3)CC2)c1
stdout: -0.4137

stdin: Further, for Cl.c1ccc2sc(C3(N4CCCCC4)CCCCC3)cc2c1 [BTCP hydrochloride] ?
stdout: -0.3597

stdin: Would you kindly repeat that for CCCCC1(C2CCCC2)Cc2cc(OCC(=O)O)c(Cl)c(Cl)c2C1=O (stereo in doubt) [R(+)-Butylindazone] ?
stdout: -0.3461

stdin: Same lookup for CC(=O)c1c(O)c(C)c(O)c(Cc2c(O)c3c(c(C(=O)/C=C/c4ccccc4)c2O)OC(C)(C)C=C3)c1O , please.
stdout: -0.1078

stdin: # iterate: CC1=C(C(=O)O)N2C(=O)[C@@H](NC(=O)[C@H](N)C3=CCC=CC3)[C@H]2SC1
stdout: -0.2748

stdin: Ok, now N=C(N)NC(=O)c1nc(Cl)c(N2CCCCCC2)nc1N [5-(N,N-hexamethylene)amiloride]
stdout: -0.1837

stdin: Also CCCN(CCC)[C@@H]1CCc2c(F)ccc(O)c2C1.Cl [R(+)-UH-301 hydrochloride] , if possible.
stdout: -0.2426

stdin: Cool, now CNCCCC1c2ccccc2C=Cc2ccccc21 [Protriptyline hydrochloride]
stdout: -0.1641

stdin: Follow-up entry: O=c1nc2[nH]c3ccccc3nc-2c(=O)[nH]1
stdout: -0.2945

stdin: How about Nc1ccc(S(=O)(=O)Nc2ccnn2-c2ccccc2)cc1 ?
stdout: -0.3295

stdin: Check Clc1ccc(N2C[C@H]3CC[C@@H](C2)N3)nn1 too.
stdout: -0.2242

stdin: Query NCCCCN=C(N)N [Agmatine sulfate] next
stdout: -0.3313

====

Target: Human IP6K1 (Homo sapiens, UniProt Q92551)
Construct: GST (N, cleaved yes); made in house; host or cells: C43 E. coli, pGEX-6P-2
Sequence (Q92551 whole entry): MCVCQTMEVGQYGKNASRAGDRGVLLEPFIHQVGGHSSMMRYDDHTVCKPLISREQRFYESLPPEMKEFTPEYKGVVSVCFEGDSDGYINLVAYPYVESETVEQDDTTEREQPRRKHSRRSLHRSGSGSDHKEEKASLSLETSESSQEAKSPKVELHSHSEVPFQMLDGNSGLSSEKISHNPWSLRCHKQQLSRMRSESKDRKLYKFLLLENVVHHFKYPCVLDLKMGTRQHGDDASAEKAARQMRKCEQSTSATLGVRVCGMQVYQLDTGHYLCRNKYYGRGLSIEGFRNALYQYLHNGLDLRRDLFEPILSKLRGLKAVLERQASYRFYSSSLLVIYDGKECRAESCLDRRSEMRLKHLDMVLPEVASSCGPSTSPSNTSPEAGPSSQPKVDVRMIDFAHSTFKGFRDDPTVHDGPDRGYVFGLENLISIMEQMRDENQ
Assay: IP6K1 high-throughput screen of the Sigma LOPAC (ADP-Glo Max, single point);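 note: final compound concentration 10µM in 5% DMSO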
Assay type: biochemical
Details: Sigma LOPAC single-point screen, ADP-Glo Max raw signal per well
Structures can show the parent of a compound that is named as a salt.
Please provide measured Raw Signal for the entries that follow.
Give the figure only, with no unit attached.

stdin: Fill in the blank: the reported Raw Signal of N[C@@H](Cc1c[nH]c2ccc(O)cc12)C(=O)O [5-Hydroxy-L-tryptophan] is ____.
stdout: 60622

stdin: Can you check NC(=O)N1c2ccccc2C=Cc2ccccc21 [Carbamazepine] next?
stdout: 60604

stdin: Next up: c1ccc2c(c1)[I+]c1ccccc1-2 [Diphenyleneiodonium chloride]
stdout: 59663

stdin: Repeat for the following compound: CSc1ccc2c(c1)C(N1CCN(C)CC1)Cc1ccccc1S2 (stereo not drawn) [Methiothepin mesylate]
stdout: 58558

stdin: Try CC1=C(C(=O)O)N2C(=O)[C@@H](NC(=O)[C@H](N)c3ccccc3)[C@H]2SC1.O [Cephalexin hydrate] next.
stdout: 61524

stdin: Okay, and N[C@H](CCC(=O)NCS(=O)(=O)O)C(=O)O ?
stdout: 58321
